This collection of values is drawn from PubChem BioAssay AID248.

- Test system: L1210 leukemia ip in BDF1 mice, survival T/C
- Test: NCI In Vivo Anticancer Drug Screen. Data for tumor model L1210 Leukemia (intraperitoneal) in B6D2F1 (BDF1) mice
- Condition label: endpoint: mean survival time; dose: 50.0 mg/kg/injection; schedule: Q04DX003 (ip); vehicle: saline; higher = longer survival
Inconclusive results and toxic doses are left out.
Metric name: T/C

1) CC1CCCCC1(C)C1C=CC(=O)OC1(C)C (configuration not stated) :: 97 % of control
2) COc1cccc(N=Nc2c(N)nc(N)[nH]c2=O)c1 :: 101 % of control
3) O=C1C(Br)=C(N2CC2)C(=O)C(Br)=C1N1CC1 :: 103 % of control
4) N#CC1C2CCC(C2)C1CCCN (configuration not stated) :: 95 % of control
5) CCN(CC)CC(=O)NCC(CCN1CCCCC1)c1cccc2ccccc12 (configuration not stated) :: 111 % of control

Item CS(=O)(=O)c1nc(N)nc2nc[nH]c12 with L1210 leukemia ip in BDF1 mice, survival T/C - T/C? 98 % of control

Item NCCc1ccc(O)c(O)c1 with L1210 leukemia ip in BDF1 mice, survival T/C - T/C? 94 % of control
